- assay-info: NCI Yeast Anticancer Drug Screen. Data for the mec2-1 strain (AID 157)
- test-settings: S. cerevisiae mec2-1 strain, at 50.0 µM
Compounds without any hit were thinned out: in the full panel of roughly 79,000, 15% have a hit. The source made the active and inactive calls. Cut-off read from the data, not from the text of the source: active = growth inhibition above about 70%; inactive = the rest.
Labels: Y (active), N (inactive)

| compound | qualitative-label |
| --- | --- |
| CCN(CC)CCCOC(=O)C(c1ccccc1)C1CCCCC1 (stereo unspecified) | N |
| Cc1ccc(C2C(O)=C(c3ccccc3)Sc3ccc(C)cc32)cc1 (stereo unspecified) | N |
| Cc1c[nH]c(C(=O)O)c1-c1ccc2c(-c3ccccc3)nc3ccccc3n12 | Y |
| O=C1C(Cl)=C(Cl)C(=O)C2CC=CCC12 (stereo unspecified) | Y |
| COc1ccc(-c2c(-c3ccccc3)c(C)nc3nc(SC)nc(SC)c23)cc1OC | Y |
| O=C(Nc1ccc2c(c1)Cc1cc([N+](=O)[O-])c(F)cc1-2)C(F)(F)F | N |

###

Listed next: entries and their corresponding growth inhibition.
- assay-info: NCI Yeast Anticancer Drug Screen. Data for the sgs1 mgt1 strain (AID 161);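 note: 0% = growth of cultures given vehicle only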
- test-settings: S. cerevisiae sgs1 mgt1 strain, at 50.0 µM (retest, dose inferred, filed as 5.0), active compounds read high
This is part of a sample that, as a whole, favours compounds with a hit. Of some 79,000 tested, about 15% had one in any assay. Calls of active or inactive are those of the source. Cut-off read from the data, not from the text of the source: active = growth inhibition above about 70%; inactive = the rest.

| molecule | growth inhibition |
| --- | --- |
| COc1ccc(CN2CCCN(Cc3ccc(OC)cc3OC)C2c2cc(Cl)cc(Cl)c2O)c(OC)c1 | 75% (active) |
| S=c1nc(C(c2ccccc2)c2ccccc2)[nH][nH]1 | 13% (inactive) |
| O=C(OCc1ccccc1)c1ccc(O)cc1 | 64% (inactive) |
| Fc1ccc2nncc(SCc3ccccc3)c2c1 | 98% (active) |
| CC(C)C1=CC23CCC4C(C)(C(=O)O)CCCC4(C)C2CC1c1c(O)ccc(O)c13 (stereo unspecified) | 99% (active) |
| CC(=O)/C=N/Nc1ccccc1 | 11% (inactive) |
| Cc1c2[nH]c3ccc(Br)cc3c2c(C)c2[nH]ccc(=O)c12 | 28% (inactive) |
| Oc1c(Br)ccc2c(O)c(Br)ccc12 | 98% (active) |
| CCOc1ccc(C(=O)CCN2CCOCC2)cc1 | 53% (inactive) |
| O=C(NC1CCN(Cc2ccccc2)CC1)c1ccc(I)cc1 | 87% (active) |
| O=C(Nc1ccccc1)OCCN=C1c2ccccc2CCc2ccccc21 | 95% (active) |

###

- assay-info: NCI Yeast Anticancer Drug Screen. Data for the mlh1 rad18 strain (AID 175)
- test-settings: S. cerevisiae mlh1 rad18 strain growth inhibition; at 5.0 µM (retest, dose inferred, filed as 0.5); active compounds read high
Compounds without any hit were thinned out: in the full panel of roughly 79,000, 15% have a hit. Activity calls are given as the source filed them. Rule as the data show it: active = growth inhibition above about 70%; inactive = the rest.
Listed next: entries and their corresponding growth inhibition.
quantity-measured: growth inhibition

| molecule | result |
| --- | --- |
| CCCCc1c2c(nc3c1CC/C(=C\c1ccc([N+](=O)[O-])cc1)C3=O)CCCC2 | 96% (active) |
| COc1ccc(N)c([N+](=O)[O-])c1 | -4% (inactive) |
| O=C1c2ccccc2C(=O)c2c(NCCNCCO)ccc(O)c21 | 24% (inactive) |
| CCOC(=O)/C=C(\CC(=O)OCC)C(=O)OCC | -3% (inactive) |
| COc1ccc2nc3cc(Cl)ccc3c(NCCC[N+](C)(C)CCCCCCCCCC[N+](C)(C)CCCNc3c4ccc(Cl)cc4nc4ccc(OC)cc34)c2c1 | 41% (inactive) |
| CCC(C)C(C(=O)NOC(=O)c1ccccc1)/C(N)=N/OC(=O)c1ccccc1 (centres undefined) | 97% (active) |
| CCCCCCCCCCCC(=O)OC/C=C/COC(=O)c1ccccc1 | -7% (inactive) |
| N#CC(C(=O)CCCC(=O)Nc1cccc([N+](=O)[O-])c1)c1cccc2ccccc12 (centres undefined) | 5% (inactive) |
| CCN(CC)C(=O)C(C)OC(C)=O (centres undefined) | 1% (inactive) |
| Nc1ccc(Cl)c2c1C(=O)c1ccccc1C2=O | 13% (inactive) |
| C=CCOCCC(=O)OCC=C | -1% (inactive) |
| COc1ccc2c(c1)C(=O)/C(=C/c1ccc([N+](=O)[O-])o1)CO2 | 78% (active) |
| COc1cc(OC)c(C/C=C/c2ccccc2)cc1O | 30% (inactive) |
| CCOC(=O)N1C=CC(=C2C(=C3C=CN(C(=O)OCC)C=C3)C(=C3C=CN(C(=O)OCC)C=C3)C2=C2C=CN(C(=O)OCC)C=C2)C=C1 | 1% (inactive) |
| CCOC(=O)C(N=Nc1ccc(Br)c(C)c1)C(C)=O (centres undefined) | 4% (inactive) |
| CC(=O)C1=C(C)O/C(=C/c2ccc(Cl)cc2)C1=O | 34% (inactive) |
| CC1CCCC(CCN(C)CCC2CCCCC2)CC1 (centres undefined) | 45% (inactive) |
| Cc1ccc2c(c1)C1(SC(CC(=O)O)C(=O)N1c1ccc(Cl)cc1)C(=O)N2 (centres undefined) | 0% (inactive) |
| CCCCCCCCCCCCCCC/C([O-])=N/[N+](C)(C)CC(C)O (centres undefined) | 98% (active) |
| COc1ccc2c(c1)[n+]([O-])c(-c1ccc(C)cc1)c(N)[n+]2[O-] | 63% (inactive) |
| C=CCN1/C(=C\C=C\c2ccc3cc(C)ccc3[n+]2CC=C)C=Cc2cc(C)ccc21 | 79% (active) |
| O=C(Nc1cccc(C(F)(F)F)c1)C(Cl)=C(Cl)Cl | -2% (inactive) |
| Cc1ccc(Nc2nc3c(s2)C(=O)c2ccccc2C3=O)cc1 | 61% (inactive) |
| C=C1CCC[C@@]2(C)CC[C@@H](/C(C)=C\C=C\C(C)(C)O)C[C@H]12 | -2% (inactive) |
| CNc1ccc(C(=O)NC(CCCCNC(=O)OCc2ccccc2)C(=O)OC)cc1 (centres undefined) | 2% (inactive) |
| CCOc1ccc(C(=O)CCN2CCOCC2)cc1 | 6% (inactive) |
| C=C(C)COc1ccccc1C(OCC)OCC | 0% (inactive) |
| O=C(O)CCn1c2ccccc2c2ccccc21 | -4% (inactive) |
| CCCSc1n[nH]c(=S)s1 | -1% (inactive) |
| CCc1nc(N)nc(N)c1-c1ccc(N(C)Cc2ccccc2)c([N+](=O)[O-])c1 | 8% (inactive) |
| O=C(Nc1ccc2c(c1)Cc1cc([N+](=O)[O-])c(F)cc1-2)C(F)(F)F | 3% (inactive) |
| CCCCCCC[CH2][Sn]([CH2]CCCCCCC)([O]c1cccc2cccnc12)[O]c1cccc2cccnc12 | 10% (inactive) |
| CCc1cccc(CC)c1NC1=C(Cl)C(=O)c2ccccc2C1=O | 99% (active) |
| C[C@]12C[C@@H](c3ccccc3)Nc3ccccc3N1C(c1ccccc1)=NO2 | -19% (inactive) |

Where these numbers come from: PubChem BioAssay (NCI)
